Test system: Wolbachia pipientis
Assay: Anti-Wolbachia Cell-Based Screen
Assay type: functional
Design: scale not given: in the data most compounds retested in dose-response had high values
Conditions: 5 µM
Hit rate of the full screen: of about 48,000 compounds, about 13,000 (27%) showed an effect of 50% or more. The list shows a part of the results.
Metric Name: Percent Effect (%)
Give bare numbers, in %.

See these solved cases before continuing.
Cn1cc(CN2C[C@H]3CCC[C@@]3(COCC3CC3)C2)cn1.O=C(O)C(F)(F)F ... 101.6
Cc1cccc(CN2C[C@H]3CCC[C@@]3(COCc3csc(C)n3)C2)n1.O=C(O)C(F)(F)F.O=C(O)C(F)(F)F ... -5.241
Cc1ccc(C(=O)NC2CCOc3ccccc32)cc1S(C)(=O)=O (stereo not given) ... 118
Cn1cc(CN2CCn3cnc(COCC4CC4)c3C2)cn1.O=C(O)C(F)(F)F ... 8.69
Cn1cc(CN2C[C@@H]3COC[C@]3(CNC(=O)c3ccsc3)C2)cn1.O=C(O)C(F)(F)F ... -12.06

// for each compound in input: emit Percent Effect
1. CCn1nc(C)c(CCn2ccnc2-c2cc3n(n2)CCNC3)c1C
2. CNC(=O)CNC(=O)CC1C(=O)NCCN1Cc1ccccc1C (stereo not given)
3. Cc1ccc(NC(=O)N(C)C)c(C(=O)OCC(=O)NC2CCCC2)c1
4. Cc1nc(COC[C@@]23CCC[C@@H]2CN(Cc2nccs2)C3)cs1.O=C(O)C(F)(F)F
5. CC(C)c1cccc(-n2cc(O)c(C(=O)NCCCn3cccn3)n2)c1
6. CNS(=O)(=O)c1cc(C(=O)NC2COc3ccccc32)cc(C)c1C (stereo not given)

[out]
[7.532, -0.8934, -9.857, 8.352, -4.081, 105.8]

Below are some compounds; for each one, tell me its Percent Effect.
1. Cn1cc(CN2C[C@@H]3COC[C@]3(COCC3CC3)C2)cn1.O=C(O)C(F)(F)F
2. Cc1cc(S(=O)(=O)N2CC[C@@H](O)C2)c(Cl)cc1F
3. CCOc1ncc(NC(=O)c2ccccn2)c(OCC)n1

[out]
[100.8, 1.456, 0.09854]

Could you tell me Percent Effect for each of these compounds? They are listed below.
1. Cn1cc(CN2C[C@@H]3COC[C@]3(CNC(=O)c3ccco3)C2)cn1.O=C(O)C(F)(F)F
2. Cc1cc(C(=O)N2C[C@H](CO)C[C@H](CN3CCOCC3)C2)nc(C)n1
3. Cc1ccccc1C(CC(=O)NCc1nnc(N)s1)c1ccccc1 (stereo not given)

[out]
1. -7.864
2. -11.42
3. 1.078

Please give Percent Effect for each item listed below.
1. Cc1noc(C)c1CN1CCC2(CC1)CCN(C(=O)c1cscn1)C2.O=C(O)C(F)(F)F
2. Cc1noc(C)c1CN1CCCC2(C1)CN(Cc1nccn1C)CCO2.O=C(O)C(F)(F)F.O=C(O)C(F)(F)F (stereo not given)
3. Cc1nnc(NC(=O)NC2CCOc3ccccc32)s1 (stereo not given)

[out]
1: -11.08; 2: -4.465; 3: 11.11
